Origin of values: PubChem BioAssay (NCI)

- Test system: SK-OV-3 ovarian
- experiment.notes: NCI-60 one-dose screen, 48 h
- condition.summary: 10 µM unless noted
- Method: Growth inhibition of the SK-OV-3 human tumor cell line is measured as a screen for anti-cancer activity. Cells are grown in 96 well plates and exposed to the test compound for 48 hours. Compounds are tested at a single concentration, which is 10^-5 M for most compounds. The reported endpoint is percent growth (GI% or GIPRCNT), where numbers from 0 - 100% represent growth inhibition, and numbers from -100% - 0 represent cell death. For example, a value of 40 represents 60% growth inhibition. […]
The panel holds about 83,000 compounds, 20% with a hit somewhere; the sample as a whole holds those more often. Activity calls are given as the source filed them. The calls were made as follows: active = growth percent below 10; inactive = the rest.
Mark one answer only. Choices: yes = active, no = inactive

1. N#Cc1c(-c2ccccc2)[nH]c2ncc(-c3ccccc3)n2c1=O
no
2. Cn1c(=O)c2nc(/C=C/c3ccccc3)c(=O)[nH]c2n(C)c1=S
no
3. CCOc1ccc(NC(=O)CSc2oc(-c3ccccc3)nc2S(=O)(=O)c2ccc(C)cc2)cc1
no
4. C=CCn1c(SCC(=O)Nc2ccc(C(=O)/C=C/c3ccc(Cl)cc3)cc2)nnc1-c1ccc(Br)cc1
no
5. C=C(C)[C@@H]1CC[C@]2(C(=O)N3CCOCC3)CC[C@]3(C)[C@H](CC[C@@H]4[C@@]5(C)C/C(=C/c6ccncc6)C(=O)C(C)(C)[C@@H]5CC[C@]43C)[C@@H]12
no
6. Nc1[nH]n2cc(-c3ccccc3)nc2c1N=Nc1ccc(S(N)(=O)=O)cc1
no
7. O=C(Nc1ccc(OS(=O)(=O)c2ccc(F)cc2)cc1)C1CCCCCC1
no
8. COc1ccc(CN2c3ccccc3Sc3ccccc32)cc1F
no
9. CSc1nc2ncc([N+](=O)[O-])c(=O)n2[nH]1
no
10. Cn1ccnc1C(=O)/C=C/c1ccc(C(=O)Nc2ccc(Cl)cc2)cc1
no

Q: # fetch the recorded call for COc1cc(-c2nc3sccn3c2-c2ccnc(NCCNS(=O)(=O)c3ccccc3)n2)ccc1F here
Result: no

Q: Then this molecule: CCC1=C[C@@H]2C[C@]3(C(=O)OC)c4[nH]c5ccccc5c4CC[N@+](CC(=O)Nc4cc5c(cc4OC)N(C)[C@H]4[C@@](O)(C(=O)OC)[C@H](OC(C)=O)[C@]6(CC)C=CCN7CC[C@]54[C@@H]76)(C2)[C@H]13
Result: no

Q: Then this molecule: N#CC1=C(N)Oc2c(ccc3ccccc23)C1c1ccccc1 (stereo unspecified)
Result: no

Q: Then this molecule: Cc1ccccc1/C=C/C(=O)c1cccc(OCCCCOc2cccc(C(=O)/C=C/c3ccccc3C)c2)c1
Result: no

Q: Then this molecule: CCC(C(=O)[C@@H](C)[C@@H](O)[C@H](C)[C@@H]1O[C@@H]([C@@H](CC)C(=O)ONC(=O)c2ccccc2)CC[C@@H]1C)[C@H]1O[C@]2(C=CC(=O)[C@]3(CC[C@@](C)([C@H]4CC[C@](O)(CC)[C@H](C)O4)O3)O2)[C@H](C)C[C@@H]1C (stereo partly specified)
Result: no

Q: Then this molecule: Oc1c(I)cc(I)cc1CNCc1ccccn1
Result: no

Q: Then this molecule: CCCCCCCC[C@@H]1N[C@@H](C(=O)OC)Cc2c1[nH]c1ccccc21
Result: no

Q: Then this molecule: NS(=O)(=O)c1ccc(N=Nc2c(O)n(Cc3ccccc3)c3ccc(Cl)cc23)cc1
Result: no

###

- Test system: HCT-116 colon
- experiment.notes: NCI-60 one-dose screen, 48 h (100 = growth as untreated, 0 = no growth, -100 = all killed)
- condition.summary: 10 µM unless noted
Compounds without any hit were thinned out: in the full panel of roughly 83,000, 20% have a hit.
Assign labels as follows, please: Met for growth below 30%; Not met for growth equal to or exceeding 30%.

Take a look at these entries with their results.
1) COC1=CC(c2ccc[nH]2)=N/C1=C\c1[nH]c(C)c(C(=O)OC(C)C)c1C
Met
2) CC(C)=CCC[C@](C)(O)[C@H]1CC[C@]2(C)[C@@H]1CC[C@@H]1[C@@]3(C)C/C(=C/c4ccco4)C(=O)C(C)(C)[C@@H]3CC[C@]12C
Not met
3) Oc1ccc(Cl)cc1/C=N\NC(=S)N/N=C/c1cc(Cl)ccc1O
Met
4) Cc1c2cnccc2c(C)c2c1c1cc(C#N)ccc1n2C
Met
5) Cn1ccc(=O)c(C(=O)Nc2nsc3ccc([N+](=O)[O-])cc23)c1
Not met
6) Cc1cc(C(=O)Nc2ncc(Cc3cccc(C(F)(F)F)c3)s2)c2ccccc2n1
Met
7) O=C(O)c1cn(C2CC2)c2cc(N3CCN(Cc4ccc5ccccc5c4O)CC3)c(F)cc2c1=O
Met
8) N#Cc1nc(-c2ccc(F)cc2)oc1S(=O)(=O)N1CCOCC1
Met
9) O=c1c2ccccc2n2cnc3ccc(Cl)c1c32
Not met
10) Cc1ccc(Nn2c(SCC(=O)Nc3nc(-c4ccccc4)cs3)nc(C)c2C)cc1
Not met

Q: Find out if reported growth for Fc1cccc(Oc2ccc(Nc3ncnc4ccc(OCCCN5CCOCC5)cc34)cc2Cl)c1 is less than 30%
Result: Not met

Q: Then this compound: N#Cc1c(-c2ccc(Cl)cc2)nc(NN2C(=O)c3ccccc3C2=O)nc1N1CCOCC1
Result: Not met

Q: Then this compound: Clc1ccc2c(NC3CCC(N4CCOCC4)CC3)ccnc2c1 (stereo unspecified)
Result: Not met

###

- Tested on: UACC-62 melanoma
- experiment.notes: NCI-60 one-dose screen, 48 h (100 = growth as untreated, 0 = no growth, -100 = all killed)
- condition.summary: 10 µM unless noted
Compounds without any hit were thinned out: in the full panel of roughly 83,000, 20% have a hit.
Assign labels as follows, please: True for growth below 50%; False for growth equal to or exceeding 50%.

1) CN(/C(N)=N/N=C/c1c2ccccc2cc2ccccc12)C1CCCCC1
True
2) O=C(O)CCN1C(=O)/C(=C/C(Cl)=C/c2ccccc2)SC1=S
True
3) Cc1ccc2c(n1)C(=O)C(Br)=C(CC(C)C)C2=O
False
4) CN(C)CCNC(=O)c1ccc(-c2nc3ccc4[nH]ncc4c3c3c2C2CCC3C2)cc1 (stereo not given)
True

Field: next compound
Q: Find out if reported growth for N#CC1=C(N)Oc2c(c(=O)[nH]c3ccc(Cl)cc23)C12C(=O)c1ccccc1C2=O is less than 50%
Result: False

###

- Tested on: SK-OV-3 ovarian
- experiment.notes: NCI-60 one-dose screen, 48 h
- condition.summary: 10 µM unless noted
This is part of a sample that, as a whole, favours compounds with a hit. Of some 83,000 tested, about 20% had one in any assay. Calls of active or inactive are those of the source. The calls were made as follows: active = growth percent below 10; inactive = the rest.
Mark one answer only. Choices: label 1 = active, label 0 = inactive

Take a look at these entries with their results.
1) CCc1ncnc2c1ccn2C(C)c1ccc(OC)c(F)c1 (stereo not given)
label 0
2) Cc1cccc(CNc2c3ccccc3nc3ccccc23)c1
label 0
3) CC(O)(c1ccccc1)C(c1ccccc1)C1CCCCN1 (stereo not given)
label 0
4) N#CSc1c[nH]c2cccc(/C=C/C(=O)/C=C(/C=C/c3cccc4[nH]cc(SC#N)c34)OB(F)F)c12
label 0

Q: # fetch the recorded call for COc1ccc(OC)c(-c2nc(SCC(=O)c3ccc(C#N)cc3)[nH]c(=O)c2C#N)c1 here
Result: label 0

Q: Then this compound: OB1OCc2cc(/C=C/c3cccc(C(F)(F)F)c3)ccc21
Result: label 0

Q: Then this compound: O=C(Nc1cccc(Cl)c1)Nc1cccc(Cn2c(=O)[nH]c3ccc(Oc4ncccn4)cc3c2=O)c1
Result: label 0

###

- Tested on: NCI-H460 lung
- experiment.notes: NCI-60 one-dose screen, 48 h (100 = growth as untreated, 0 = no growth, -100 = all killed)
- condition.summary: 10 µM unless noted
This is part of a sample that, as a whole, favours compounds with a hit. Of some 83,000 tested, about 20% had one in any assay. Activity calls are given as the source filed them. Rule for the calls: active = growth percent below 10; inactive = the rest.
# growth per record follows

Below, 4 molecules whose answers are already recorded.
1) CS(=O)(=O)c1ccc(-c2cnn3ccc(-c4cccc(S(=O)(=O)C5CC5)c4)nc23)cc1
43.7% (inactive)
2) C#CCOc1cccc(Nc2ncnc3ccc(NC(=O)C=C)cc23)c1
81.2% (inactive)
3) CC/C(=C(/c1ccc(Cl)cc1)c1ccc(OCCN(C)C)cc1)c1ccc(Cl)cc1
37.3% (inactive)
4) COc1cccc(CNc2ccc3ncnc(Nc4ccc(F)c(Cl)c4)c3c2)c1
78% (inactive)

Please look at the following molecule next.
Q: Entry COc1cc2c(c(OC)c1OC)CCC(c1cccc(NC(=O)c3ccc(Br)cc3)c1)O2 (stereo not given) : reported growth = ?
Result: 93.5% (inactive)

###

- System: MCF7 breast
- experiment.notes: NCI-60 one-dose screen, 48 h (100 = growth as untreated, 0 = no growth, -100 = all killed)
- condition.summary: 10 µM unless noted
This is part of a sample that, as a whole, favours compounds with a hit. Of some 83,000 tested, about 20% had one in any assay.
observation.type: growth (%)
The reply should contain only the number, in %.

1) CCCC/C(CC)=N\NS(=O)(=O)c1ccc([N+](=O)[O-])cc1
102
2) CCOC(=O)C/C(=N\Nc1cc(=O)[nH]c2ccc(Br)cc12)C(=O)OCC
91.9
3) COc1cc2ncnc(Nc3ccc(F)c(Cl)c3)c2cc1OCC(=O)N1CCN(c2ccccc2)CC1
90
4) O=C(NCCNc1nccc(Nc2ccc(S(=O)(=O)Nc3ccccn3)cc2)n1)c1cccc([N+](=O)[O-])c1
88.5

Please look at the following compound next.
Q: Entry Cc1ccc(Nn2c(SCC(=O)Nc3nc(-c4ccccc4)cs3)nc(C)c2C)cc1 : reported growth = ?
Result: 28.5
